B1: library; numbered along this chain (parent)
chain: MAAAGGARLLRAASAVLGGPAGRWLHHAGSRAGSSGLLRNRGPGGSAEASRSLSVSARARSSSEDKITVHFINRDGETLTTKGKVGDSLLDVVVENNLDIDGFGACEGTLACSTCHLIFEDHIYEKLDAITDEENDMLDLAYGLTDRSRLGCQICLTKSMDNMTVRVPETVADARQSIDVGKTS

Variants of: B1
Assay: scaled log2 fold change in cell abundance, elesclomol vs control (0 = silent mean, 1 = nonsense mean) (scaled log2 ratio); higher = higher viability under elesclomol (loss of FDX1 cuproptosis function);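 also: variant abundance is its share of total variant reads in each endpoint sample, from next-generation sequencing of the integrated ORF PCR-amplified out of genomic DNA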
Conditions: with HEK293T FDX1 KO; elesclomol 40 nM; glucose 10 mM; 11 days
Entry class follows scaled log2 fold change: low (below -0.07), middle (-0.07 to below 0.5), high (0.5 or more)

> print(dat)
    sequencechange  classlabel
 1           M160S      middle
 2            S34A         low
 3           C112E        high
 4           L138R         low
 5           D139G         low
 6            L10Y      middle
 7            A47P        high
 8           L144K         low
 9            G45A      middle
10           M163K      middle
11            L79K        high
12            S63C         low
13            L38I      middle
14           D132K        high
15           C155W      middle
16            L37G         low
17            S62C         low
18            P43R      middle
19            R58N      middle
20           L150R      middle
21             A4K      middle
22            A59S        high
23           L110F        high
24            G18E         low
25            S35H        high
26           A129N        high
27           N135W        high
28            G33L         low
29           D136L      middle
30           T145N         low
31            L89E        high
32             A4E      middle
33            K84R         low
34           C115G        high
35           L110S        high
36           P168K         low
37            A28K      middle
38            A13D         low
39           A174G        high
40            S62P      middle
41             A3H      middle
42            S56G        high
43            L53Y         low
44           L117E        high
45            H27C         low
46            S46I        high

All figures here come from the supplement of paper PMC12855868.
